The measured values listed here are drawn from the supplement of paper PMC7877785.

- experimental.details: self-splicing fitness, log relative to wild type (ln ratio); higher = more splicing; Tetrahymena group I intron in knt gene, E. coli kanamycin selection, DiMSum; sequences stand for … in CUCUCU…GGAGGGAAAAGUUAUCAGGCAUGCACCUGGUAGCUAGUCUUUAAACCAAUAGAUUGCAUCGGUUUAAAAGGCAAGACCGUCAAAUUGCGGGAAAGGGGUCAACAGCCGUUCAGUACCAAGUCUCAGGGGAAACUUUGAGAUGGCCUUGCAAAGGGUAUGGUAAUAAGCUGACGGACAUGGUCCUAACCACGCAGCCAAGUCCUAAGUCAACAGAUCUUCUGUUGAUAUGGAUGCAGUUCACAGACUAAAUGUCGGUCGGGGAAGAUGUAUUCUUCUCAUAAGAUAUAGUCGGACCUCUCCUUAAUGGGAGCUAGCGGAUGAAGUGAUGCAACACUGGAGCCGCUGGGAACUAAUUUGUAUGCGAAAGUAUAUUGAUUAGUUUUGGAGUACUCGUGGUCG;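 also: selection with 25 µg/mL kanamycin versus none on LB agar overnight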
- experimental.context: 37 °C
endpoint: self-splicing fitness (ln)
The reply should be a number, written without any unit.

Examples from the recorded data:
# seq, self-splicing fitness (ln)
data = [
    ("GACAAGCAAUAUUACGGGAU", -0.632),
    ("GCUCAGCAAUAUUACGGAGU", -3.35),
    ("AAGAAGCAAUAUUACGGCUA", -0.0286),
    ("GACUAGCAAUAUUACGAUGC", 0.0502),
    ("CCCCAGCAAUAUUACGGACA", -2.53),
    ("GGGCAGCAAUAUUACGGGGU", -2.84),
    ("GCGAAGCAAUAUUACGGGUU", -1.65),
    ("UGUUAGCAAUAUUACGUAGA", -0.809),
]

Bench note: what self-splicing fitness (ln) did "GAGAAGCAAUAUUACGUAAC" show?
-0.536

Bench note: what self-splicing fitness (ln) did "GCAAAGCAAUAUUACGUCUC" show?
-0.501

Bench note: what self-splicing fitness (ln) did "UUCAAGCAAUAUUACGCGAG" show?
-1.33

Bench note: what self-splicing fitness (ln) did "CUCGAGCAAUAUUACGAUAG" show?
-0.333

Bench note: what self-splicing fitness (ln) did "AACCAGCAAUAUUACGACUC" show?
-0.327
